meta.source: PubChem BioAssay (NCATS)

Assay: qHTS profiling of the MIPE4 collection as inhibitors of Plasmodium falciparum (HB3) proliferation (AID 743347);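 also: plate controls were DMSO vehicle wells for no effect and artemisinin wells for full effect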
Settings: P. falciparum HB3 in erythrocytes, SYBR Green DNA, 72 h; at 28.5 µM (top of the series) unless noted
measure: growth, % of control (%)
Provide only the numeric value, understood in %.

Worked examples, 3 molecules total:
{"molecule": "O=C(O)CCc1ccc(NCc2cccc(Oc3ccccc3)c2)cc1", "growth, % of control, %": 76.8}
{"molecule": "CCN(CC)CCCC(C)Nc1ccnc2cc(Cl)ccc12 (stereo not given)", "growth, % of control, %": 41.8}
{"molecule": "CC(C)NCC(O)COc1ccc(COCCOC(C)C)cc1 (stereo not given)", "growth, % of control, %": 102}

We next turn to a different molecule, shown below.
[Q] Dear colleague, please send me the reported growth, % of control for CCC(C)n1ncn(-c2ccc(N3CCN(c4ccc(OC[C@H]5CO[C@](Cn6cncn6)(c6ccc(Cl)cc6Cl)O5)cc4)CC3)cc2)c1=O (stereo not given in full) when you can.
[A] 4.47
